Examples of compounds with documented Cmax follow.
Experiment: Pharmacokinetics in SD rats, intravenous injection or intragastric administration
Format: in vivo
Conditions: male, Sprague-Dawley, rat, plasma, oral (3 mg/kg), read-out: drug concentration in blood, Cmax
Return type: number; implicit unit ng/mL.

Look over these answered cases.
compound="O=C(O)c1cc(N2CCCOc3ccc(F)cc32)ncc1-c1nc2ccccc2o1 [Compound 12]" parameter_measured=Cmax result_value=8650
compound="O=C(O)c1cc(N2CCCOc3ccc(F)cc32)ncc1-c1nc2cc(F)ccc2o1 [Compound 14]" parameter_measured=Cmax result_value=14300

We next turn to a different compound, shown below.
Would you kindly share the measured Cmax for O=C(O)c1cc(N2CCCOc3ccc(F)cc32)ncc1-c1nc2ccc(F)cc2o1 [Compound 15] ?
7050

====

Target: human AT2R (Homo sapiens)
Construct: Tb (terbium) label on the receptor; expressed in transfected cells
Sequence (P50052 whole entry): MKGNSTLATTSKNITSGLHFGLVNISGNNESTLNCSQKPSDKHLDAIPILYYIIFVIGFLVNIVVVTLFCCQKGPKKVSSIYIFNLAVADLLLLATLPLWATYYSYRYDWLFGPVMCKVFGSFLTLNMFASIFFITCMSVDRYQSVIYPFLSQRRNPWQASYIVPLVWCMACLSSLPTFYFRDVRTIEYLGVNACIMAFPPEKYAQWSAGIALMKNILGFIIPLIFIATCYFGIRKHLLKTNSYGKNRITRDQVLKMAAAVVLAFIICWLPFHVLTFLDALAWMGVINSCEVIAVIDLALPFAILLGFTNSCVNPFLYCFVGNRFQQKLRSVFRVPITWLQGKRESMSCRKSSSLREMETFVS
Experiment: Antagonistic activity on the binding of human AT2R ligand (Tag-lite HTRF ligand binding, Tb-labeled-AT2R cells)
Conditions: red agonist fluorescent ligand, 1 hour room temperature
PARAMETER_MEASURED: IC50 (nM)
Kindly provide the numeric value in nM only, without the unit symbol.

smiles_entry=CN(C(=O)C(c1ccccc1)c1ccccc1)c1ccc(N2CCCOc3ccc(F)cc32)nc1C(=O)O measurement_unit=nM result_value=28
smiles_entry=CN(C(=O)C(c1ccccc1)c1ccccc1)c1cnc(N2CCCOc3cc(F)c(F)cc32)cc1C(=O)O measurement_unit=nM result_value=26
smiles_entry=CN(C(=O)C(c1ccccc1)c1ccccc1)c1ccc(N2CCCOc3ccc(F)cc32)cc1C(=O)O measurement_unit=nM result_value=37

API: the following record is the query input.
Form field: IC50 recorded for CN(C(=O)C(c1ccccc1)c1ccccc1)c1cnc(N2CCCOc3ccc(F)cc32)cc1C(=O)O with human AT2R (Homo sapiens) (enter value)
10

====

Assay: Pharmacokinetics in SD rats, intravenous injection or intragastric administration
Type: in vivo
Settings: male, Sprague-Dawley, rat, plasma, oral (3 mg/kg) versus injection (1 mg/kg), read-out: bioavailability F
PARAMETER_MEASURED: bioavailability (%)
All answers are understood in %, so give the number only.

Entry O=C(O)c1cc(N2CCCOc3ccc(F)cc32)ncc1-c1nc2ccccc2o1 has what bioavailability?
83.1

# query: bioavailability of entry O=C(O)c1cc(N2CCCOc3ccc(F)cc32)ncc1-c1nc2ccc(F)cc2o1
89.9

Recorded bioavailability for O=C(O)c1cc(N2CCCOc3ccc(F)cc32)ncc1-c1nc2cc(F)ccc2o1 , please?
105

====

Experiment: Metabolic stability in rat liver microsomes
Assay type: in vitro ADME
Conditions: pH 7.4; rat liver microsomes 0.5 mg/mL, 1 μM compound, NADPH 1 mM, 0-60 min; read-out: half-life/(T1/2, min)
Give label 1 when the value for half-life at 1 μM is at least 300 min. Give label 0 when it is less.

Worked examples, 5 molecules total:
molecule="COc1ccc2c(c1OCc1ccccc1)C[C@@H](C(=O)O)N(C(=O)C(c1ccccc1)c1ccccc1)C2 [olodanrigan, reference compound]" class_assignment="label 0"
molecule="O=C(O)c1cc(N2CCCOc3ccc(F)cc32)ncc1-c1nc2ccccc2o1 [Compound 12]" class_assignment="label 0"
molecule="N#Cc1ccc2nc(-c3cnc(N4CCCOc5ccc(F)cc54)cc3C(=O)O)oc2c1 [Compound 16]" class_assignment="label 1"
molecule="O=C(O)c1cc(N2CCCOc3ccc(F)cc32)ncc1-c1nc2ccc(F)cc2o1 [Compound 15]" class_assignment="label 0"
molecule="CN(C(=O)C(c1ccccc1)c1ccccc1)c1ccc(N2CCCOc3ccc(F)cc32)cc1C(=O)O [Compound 4]" class_assignment="label 0"

Hello, I need to know if O=C(O)c1cc(N2CCCOc3ccc(F)cc32)ncc1-c1nc2cc(F)ccc2o1 [Compound 14] has measured half-life at 1 μM not below 300 min. Thanks!
label 1
